Catalogue of pIC50 readings, one per entry.
target: hERG potassium ion channel (Homo sapiens, UniProt Q12809); construct: expressed in transfected cells; host or cells: CHO (Chinese hamster ovary) cells stably expressing hERG; assay: Effect on hERG potassium ion channel (manual patch-clamp, CHO cells); assay type: cell-based; conditions: CHO cells stably expressing hERG, whole cell patch-clamp; read-out: IC50 for inhibitory effect on hERG potassium channel current
Sequence (Q12809 whole entry): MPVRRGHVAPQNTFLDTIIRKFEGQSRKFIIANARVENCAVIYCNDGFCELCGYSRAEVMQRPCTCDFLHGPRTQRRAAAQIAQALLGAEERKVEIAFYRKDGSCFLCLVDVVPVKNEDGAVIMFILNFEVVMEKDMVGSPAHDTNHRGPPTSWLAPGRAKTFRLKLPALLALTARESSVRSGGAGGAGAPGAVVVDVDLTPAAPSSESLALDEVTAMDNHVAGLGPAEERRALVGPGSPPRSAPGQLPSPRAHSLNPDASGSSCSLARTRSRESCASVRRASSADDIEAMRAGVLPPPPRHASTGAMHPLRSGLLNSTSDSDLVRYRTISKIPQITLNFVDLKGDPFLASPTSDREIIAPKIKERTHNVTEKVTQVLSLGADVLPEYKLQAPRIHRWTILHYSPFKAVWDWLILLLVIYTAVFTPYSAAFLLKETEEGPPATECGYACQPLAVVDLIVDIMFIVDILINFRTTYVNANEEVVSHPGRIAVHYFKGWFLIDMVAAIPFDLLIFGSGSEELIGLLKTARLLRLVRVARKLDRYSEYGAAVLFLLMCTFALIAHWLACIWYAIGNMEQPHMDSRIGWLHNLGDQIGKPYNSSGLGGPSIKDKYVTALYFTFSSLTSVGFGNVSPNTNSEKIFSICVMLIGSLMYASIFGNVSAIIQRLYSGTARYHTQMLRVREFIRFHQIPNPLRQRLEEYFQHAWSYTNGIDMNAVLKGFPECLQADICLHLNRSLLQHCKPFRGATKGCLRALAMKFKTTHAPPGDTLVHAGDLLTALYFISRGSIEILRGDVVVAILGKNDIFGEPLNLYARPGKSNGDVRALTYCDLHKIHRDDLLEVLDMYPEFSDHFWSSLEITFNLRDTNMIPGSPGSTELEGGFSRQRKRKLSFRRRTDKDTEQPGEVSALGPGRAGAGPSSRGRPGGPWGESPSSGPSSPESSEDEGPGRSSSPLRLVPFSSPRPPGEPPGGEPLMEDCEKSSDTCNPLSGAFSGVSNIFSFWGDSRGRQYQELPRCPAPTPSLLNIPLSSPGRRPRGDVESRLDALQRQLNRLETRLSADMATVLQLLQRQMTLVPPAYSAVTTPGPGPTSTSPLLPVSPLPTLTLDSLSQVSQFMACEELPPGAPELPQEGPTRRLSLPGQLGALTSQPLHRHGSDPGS
pIC50: −log10 of the molar value.

{"COMPOUND": "Cn1nc(C2CCC(=O)NC2=O)c2cccc(C#CCO[C@@H]3CCN(C[C@H]4CC[C@H](n5cc(NC(=O)c6cnn7ccc(N8CCO[C@@H](CO)C8)nc67)c(C(F)F)n5)CC4)C[C@@H]3F)c21 (single isomer, unassigned) [Chiral isomer 1 of compound 19]", "pIC50": "< 4.70"}
{"COMPOUND": "Cn1nc(C2CCC(=O)NC2=O)c2cccc(C#CCO[C@@H]3CCN(C[C@H]4CC[C@H](n5cc(NC(=O)c6cnn7ccc(N8C[C@H]9C[C@@H]8CO9)nc67)c(C(F)F)n5)CC4)C[C@@H]3F)c21 (some centres unmarked)", "pIC50": "< 4.52"}
{"COMPOUND": "Cn1nc(C2CCC(=O)NC2=O)c2cccc(C#CCO[C@H]3CCN(C[C@H]4CC[C@H](n5cc(NC(=O)c6cnn7ccc(N8CCO[C@H](CO)C8)nc67)c(C(F)F)n5)CC4)C[C@H]3F)c21 (single isomer, unassigned) [Chiral isomer 1 of compound 25]", "pIC50": "< 4.40"}
{"COMPOUND": "COC[C@H]1CN(c2ccn3ncc(C(=O)Nc4cn([C@H]5CC[C@H](CN6CC[C@H](OCC#Cc7cccc8c(C9CCC(=O)NC9=O)nn(C)c78)[C@H](F)C6)CC5)nc4C(F)F)c3n2)CCO1 (single isomer, unassigned) [Chiral isomer 2 of compound 23]", "pIC50": "< 4.40"}
{"COMPOUND": "Cn1nc(C2CCC(=O)NC2=O)c2cccc(C#CCO[C@H]3CCN(C[C@H]4CC[C@H](n5cc(NC(=O)c6cnn7ccc(N8CCO[C@H](CO)C8)nc67)c(C(F)F)n5)CC4)C[C@H]3F)c21 (single isomer, unassigned) [Chiral isomer 2 of compound 25]", "pIC50": "< 4.40"}

====

biological target: IRAK4 protein (Homo sapiens); construct: endogenous in cells; host or cells: human peripheral blood mononuclear cells (hPBMC) from healthy volunteers; assay: IRAK4 degradation activity in hPBMC cells (24 hours); type: cell-based; settings: 100 nM, relative to vehicle control
Sequence (Q9NWZ3 whole entry): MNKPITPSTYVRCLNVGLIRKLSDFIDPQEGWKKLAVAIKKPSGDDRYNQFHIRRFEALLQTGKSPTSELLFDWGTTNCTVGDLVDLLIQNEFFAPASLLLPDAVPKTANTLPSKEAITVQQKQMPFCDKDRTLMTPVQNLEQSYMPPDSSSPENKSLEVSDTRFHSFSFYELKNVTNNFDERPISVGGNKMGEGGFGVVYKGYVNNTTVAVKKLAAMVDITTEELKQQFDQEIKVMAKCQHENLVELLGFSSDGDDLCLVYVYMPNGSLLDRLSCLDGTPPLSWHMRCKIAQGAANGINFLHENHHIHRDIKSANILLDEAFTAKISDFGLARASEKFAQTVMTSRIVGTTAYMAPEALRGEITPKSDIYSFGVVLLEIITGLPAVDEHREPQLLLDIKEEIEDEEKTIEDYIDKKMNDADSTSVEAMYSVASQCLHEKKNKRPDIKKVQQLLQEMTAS

{"COMPOUND": "CN(C[C@H]1CC[C@H](n2cc(NC(=O)c3cnn4ccc(N5C[C@H]6C[C@@H]5CO6)nc34)c(C(F)F)n2)CC1)C1CCN(Cc2cccc3c(C4CCC(=O)NC4=O)nn(C)c23)CC1 (some centres unmarked)", "MEASURED_ON": "IRAK4 protein (Homo sapiens)", "Remaining IRAK4 protein IRAK4%": "B (10% < B ≤ 50%)"}
{"COMPOUND": "Cn1nc(C2CCC(=O)NC2=O)c2cccc(C#CCO[C@@H]3CCN(C[C@H]4CC[C@H](n5cc(NC(=O)c6cnn7ccc(N8C[C@H]9C[C@@H]8CO9)nc67)c(C(F)F)n5)CC4)C[C@@H]3F)c21 (some centres unmarked)", "MEASURED_ON": "IRAK4 protein (Homo sapiens)", "Remaining IRAK4 protein IRAK4%": "A (A ≤ 10%)"}
{"COMPOUND": "Cn1nc(C2CCC(=O)NC2=O)c2cccc(C#CCO[C@H]3CCN(C[C@H]4CC[C@H](n5cc(NC(=O)c6cnn7ccc(N8C[C@H]9C[C@@H]8CO9)nc67)c(C(F)F)n5)CC4)C[C@H]3F)c21 (some centres unmarked)", "MEASURED_ON": "IRAK4 protein (Homo sapiens)", "Remaining IRAK4 protein IRAK4%": "A (A ≤ 10%)"}
{"COMPOUND": "[2H]C([2H])([2H])n1nc(C2CCC(=O)NC2=O)c2cccc(C#CCOC3CCN(C[C@H]4CC[C@H](n5cc(NC(=O)c6cnn7ccc(N8C[C@H]9C[C@@H]8CO9)nc67)c(C(F)F)n5)CC4)CC3)c21 (relative stereo)", "MEASURED_ON": "IRAK4 protein (Homo sapiens)", "Remaining IRAK4 protein IRAK4%": "A (A ≤ 10%)"}
{"COMPOUND": "O=C1CCC(c2nn(C3CC3)c3c(C#CCOC4CCN(C[C@H]5CC[C@H](n6cc(NC(=O)c7cnn8ccc(N9C[C@H]%10C[C@@H]9CO%10)nc78)c(C(F)F)n6)CC5)CC4)cccc23)C(=O)N1 (some centres unmarked)", "MEASURED_ON": "IRAK4 protein (Homo sapiens)", "Remaining IRAK4 protein IRAK4%": "A (A ≤ 10%)"}
{"COMPOUND": "CC(C)n1nc(C2CCC(=O)NC2=O)c2cccc(C#CCOC3CCN(C[C@H]4CC[C@H](n5cc(NC(=O)c6cnn7ccc(N8C[C@H]9C[C@@H]8CO9)nc67)c(C(F)F)n5)CC4)CC3)c21 (single isomer, unassigned) [Chiral isomer 1 of compound 8]", "MEASURED_ON": "IRAK4 protein (Homo sapiens)", "Remaining IRAK4 protein IRAK4%": "B (10% < B ≤ 50%)"}
{"COMPOUND": "Cn1nc(C2CCC(=O)NC2=O)c2cccc(C#CCO[C@H]3CCN(C[C@H]4CC[C@H](n5cc(NC(=O)c6cnn7ccc(N8C[C@H]9C[C@@H]8CO9)nc67)c(C(F)F)n5)CC4)C[C@@H]3F)c21 (some centres unmarked)", "MEASURED_ON": "IRAK4 protein (Homo sapiens)", "Remaining IRAK4 protein IRAK4%": "B (10% < B ≤ 50%)"}
{"COMPOUND": "CCn1nc(C2CCC(=O)NC2=O)c2cccc(C#CCOC3CCN(C[C@H]4CC[C@H](n5cc(NC(=O)c6cnn7ccc(N8C[C@H]9C[C@@H]8CO9)nc67)c(C(F)F)n5)CC4)CC3)c21 (some centres unmarked)", "MEASURED_ON": "IRAK4 protein (Homo sapiens)", "Remaining IRAK4 protein IRAK4%": "A (A ≤ 10%)"}

====

Biological target: IRAK4 protein (Homo sapiens)
Construct: endogenous in cells; host or cells: human peripheral blood mononuclear cells (hPBMC) from healthy volunteers
Experiment: IRAK4 degradation activity in hPBMC cells (24 hours)
Format: cell-based
Conditions: 100 nM, relative to vehicle control
Method: hPBMC cells are human peripheral blood mononuclear cells. Peripheral venous blood was taken from healthy volunteers, and hPBMCs were isolated using Ficoll density gradient centrifugation (Ficoll-Paque™ PLUS 1.077, GE, Cat. 17-1140-02). Culture conditions: RPMI-1640+10% FBS+1% penicillin-streptomycin solution. […] The protein sample of the supernatant was collected, the protein was quantified using a BCA kit (Beyotime, Cat. P0009), and then the protein was diluted to 1 mg/mL. […]
Structures can show the parent of a compound that is named as a salt.
QUANTITY_NAME: Remaining IRAK4 protein IRAK4%

{"COMPOUND": "Cn1nc(C2CCC(=O)NC2=O)c2cccc(C#CCOC3CCN(C[C@H]4CC[C@H](n5cc(NC(=O)c6cnn7cc(F)c(N8C[C@H]9C[C@@H]8CO9)nc67)c(C(F)F)n5)CC4)CC3)c21 (some centres unmarked) [Trifluoroacetate salt of compound 15]", "MEASURED_ON": "IRAK4 protein (Homo sapiens)", "RESULT": "B (10% < B ≤ 50%)"}
{"COMPOUND": "Cn1nc(C2CCC(=O)NC2=O)c2cccc(C#CCO[C@@H]3CCN(C[C@H]4CC[C@H](n5cc(NC(=O)c6cnn7ccc(N8C[C@H]9C[C@@H]8CO9)nc67)c(C(F)F)n5)CC4)C[C@H]3F)c21 (some centres unmarked)", "MEASURED_ON": "IRAK4 protein (Homo sapiens)", "RESULT": "B (10% < B ≤ 50%)"}

====

Test: Pharmacokinetic test in mice
Format: in vivo, ICR mice
Details: male, ICR, mouse, plasma, po, 10 mg/kg, i.g. 10 mg/kg, read-out: AUC0-t
Description: Experimental animals: Male ICR mice, about 25 g, 6 mice/compound, purchased from Chengdu Ddossy Experimental Animals Co., Ltd. Test design: On the day of the experiment, 6 ICR mice were randomly grouped according to their body weights. […] Before and after the administration, 0.15 mL of blood was taken from the orbit of the animals under isoflurane anesthesia and placed in an EDTAK2 centrifuge tube. […] The samples were analyzed quantitatively by LC-MS/MS.
Counter-ions that a name gives are not always drawn.
Catalogue of AUC(0-t) readings, one per entry.

{"COMPOUND": "Cn1nc(C2CCC(=O)NC2=O)c2cccc(C#CCO[C@H]3CCN(C[C@H]4CC[C@H](n5cc(NC(=O)c6cnn7ccc(N8C[C@H]9C[C@@H]8CO9)nc67)c(C(F)F)n5)CC4)C[C@H]3F)c21 (stereo partly shown) [Compound 11]", "AUC(0-t) / ng·h/mL": 8750}
{"COMPOUND": "Cn1c(=O)n(C2CCC(=O)NC2=O)c2cccc(C#CCOC3CCN(C[C@H]4CC[C@H](n5cc(NC(=O)c6cnn7ccc(N8C[C@H]9C[C@@H]8CO9)nc67)c(C(F)F)n5)CC4)CC3)c21 (stereo partly shown) [Control compound 1, reference compound]", "AUC(0-t) / ng·h/mL": 2320}
{"COMPOUND": "Cn1nc(C2CCC(=O)NC2=O)c2cccc(C#CCO[C@@H]3CCN(C[C@H]4CC[C@H](n5cc(NC(=O)c6cnn7ccc(N8C[C@H]9C[C@@H]8CO9)nc67)c(C(F)F)n5)CC4)C[C@@H]3F)c21 (stereo partly shown) [Compound 10]", "AUC(0-t) / ng·h/mL": 17500}
{"COMPOUND": "Cn1nc(C2CCC(=O)NC2=O)c2cccc(C#CCO[C@@H]3CCN(C[C@H]4CC[C@H](n5cc(NC(=O)c6cnn7ccc(N8CCO[C@@H](CO)C8)nc67)c(C(F)F)n5)CC4)C[C@@H]3F)c21 (single isomer, unassigned) [Trifluoroacetate salt of chiral isomer 2 of compound 19]", "AUC(0-t) / ng·h/mL": 8300}
